Entries and their melting point

compound: O=C1O/C(=C\c2ccc(-c3ccccc3)cc2)C(O)=C1c1cccs1 [Example 144]
melting point: 213 °C (dec.)

Form: compound = O=C1O/C(=C\c2cccc3ccccc23)C(O)=C1c1cccc2ccccc12 [Example 47] ; melting point = 216 to 218 °C

Form: compound = O=C1O/C(=C\c2ccc3ccccc3c2)C(O)=C1c1ccc(-c2ccccc2)cc1 [Example 103] ; melting point = 266 to 270 °C

Form: compound = COC(=O)c1ccc(C2=C(O)/C(=C/c3cccc4ccccc34)OC2=O)cc1 [Example 74] ; melting point = 242 to 244 °C

Form: compound = O=C1O/C(=C\C2CCCCC2)C(O)=C1c1ccc(-c2ccccc2)cc1 [Example 100] ; melting point = 204 to 207 °C

Form: compound = COc1ccc(C2=C(O)/C(=C/c3ccc(-c4ccccc4)cc3)OC2=O)cc1 [Example 9] ; melting point = 266 to 269 °C

Form: compound = O=C1O/C(=C\c2ccc3ccccc3c2)C(O)=C1c1ccc2ccccc2c1 [Example 52] ; melting point = 285 to 290 °C

====

- Test system: enterococci
- method-summary: Minimum inhibitory concentration, microdilution broth method, enterococci
- Format: cell-based
- condition-notes: Enterococcus faecalis, E. faecalis GC 4555; Mueller-Hinton broth, 18-22 hours at 35° C.; read-out: MIC E. faecalis GC 4555
Note to self: use met only for MIC readings below 20 µg/mL; a reading exactly at 20 µg/mL still gets not met.

smiles-repr: O=C1O/C(=C\c2ccc(Cl)cc2)C(O)=C1c1ccc2ccccc2c1
class-label: met
--
smiles-repr: CN(C)c1ccc(/C=C2\OC(=O)C(c3ccc(Cl)cc3)=C2O)c2ccccc12
class-label: not met
--
smiles-repr: O=C1O/C(=C\c2ccc(-c3ccccc3)cc2)C(O)=C1c1cccc(C(F)(F)F)c1
class-label: met

API: the following record is the query input.
Inquiry: Take the molecule COc1ccc(C2=C(O)/C(=C/c3cccc4ccccc34)OC2=O)cc1 and say whether its MIC is less than 20 µg/mL.
Reply text: not met

====

- target-of-assay: E. coli Enopyruvyl-UPD-N-acetylglucosamine reductase, Mur B (Escherichia coli, UniProt P08373)
- Sequence (P08373 whole entry): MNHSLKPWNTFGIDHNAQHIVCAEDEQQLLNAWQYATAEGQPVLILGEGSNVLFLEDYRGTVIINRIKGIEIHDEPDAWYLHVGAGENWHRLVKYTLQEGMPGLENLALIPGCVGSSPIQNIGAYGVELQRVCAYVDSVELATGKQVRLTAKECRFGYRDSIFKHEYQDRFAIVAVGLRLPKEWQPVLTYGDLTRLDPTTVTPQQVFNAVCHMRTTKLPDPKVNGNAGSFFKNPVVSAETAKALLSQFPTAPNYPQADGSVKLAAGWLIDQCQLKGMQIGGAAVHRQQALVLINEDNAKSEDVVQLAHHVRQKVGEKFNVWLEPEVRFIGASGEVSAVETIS
- method-summary: biochemical
- condition-notes: (E) E. coli enzyme; read-out: MurB IC50 (converted)
Note to self: use Fulfilled only for IC50 readings below 20 µM; a reading exactly at 20 µM still gets Not fulfilled.

See these solved cases before continuing.
molecule: COc1cc(/C=C2\OC(=O)C(c3cc(Cl)cc(Cl)c3)=C2O)ccc1-c1ccccc1C(F)(F)F [Example 33]
class-label: Fulfilled

molecule: CCOc1ccc(-c2ccc(C3=C(O)/C(=C/c4cc(C(F)(F)F)ccc4Cl)OC3=O)cc2)cc1 [Example 129]
class-label: Fulfilled

Inquiry: Take the molecule CC(C)(C)c1ccc(-c2ccc(C3=C(O)/C(=C/c4cc(C(F)(F)F)ccc4F)OC3=O)cc2)cc1 [Example 120] and say whether its IC50 is less than 20 µM.
Reply text: Fulfilled

Inquiry: Take the molecule O=C1O/C(=C\c2ccc(-c3ccccc3)cc2)C(O)=C1c1cccc(C(F)(F)F)c1 [Example 10] and say whether its IC50 is less than 20 µM.
Reply text: Fulfilled

Inquiry: Take the molecule O=C1O/C(=C\c2ccc(-c3ccc(Cl)cc3)cc2)C(O)=C1c1ccc(Cl)cc1 [R=H, R1=4-Cl—C6H4, R2=4-(4′-Cl-biphenyl)] and say whether its IC50 is less than 20 µM.
Reply text: Fulfilled

Inquiry: Take the molecule COc1cccc(C2=C(O)/C(=C/c3cccc4ccccc34)OC2=O)c1 [Example 72] and say whether its IC50 is less than 20 µM.
Reply text: Not fulfilled

====

Entries and their MIC
- System: enterococci
- method-summary: Minimum inhibitory concentration, microdilution broth method, enterococci
- Type: cell-based
- condition-notes: Enterococcus faecalis, E. faecalis GC 2242; Mueller-Hinton broth, 18-22 hours at 35° C.; read-out: MIC E. faecalis GC 2242
Your answer should be a plain number; it is taken to be in µg/mL.

compound: O=C1O/C(=C\c2ccc(-c3ccccc3C(F)(F)F)cc2)C(O)=C1c1ccccc1C(F)(F)F [Example 61]
MIC, µg/mL: 16

Field MIC (enterococci), entry CN(C)c1ccc(/C=C2\OC(=O)C(c3ccc(Cl)cc3)=C2O)c2ccccc12 [Example 78] : 64

Field MIC (enterococci), entry O=C1O/C(=C\c2cc(F)cc(C(F)(F)F)c2)C(O)=C1c1ccc(-c2ccccc2)c(F)c1 [Example 110] : 1

Field MIC (enterococci), entry O=C1O/C(=C\c2cc(C(F)(F)F)ccc2F)C(O)=C1c1ccc(-c2ccccc2)cc1 [Example 118] : 16

====

- target-of-assay: E. coli Uridine-diphosphate-N-acetvimuramoyl: L-alanine lipase, MurC (Escherichia coli, UniProt P17952)
- Sequence (P17952 whole entry): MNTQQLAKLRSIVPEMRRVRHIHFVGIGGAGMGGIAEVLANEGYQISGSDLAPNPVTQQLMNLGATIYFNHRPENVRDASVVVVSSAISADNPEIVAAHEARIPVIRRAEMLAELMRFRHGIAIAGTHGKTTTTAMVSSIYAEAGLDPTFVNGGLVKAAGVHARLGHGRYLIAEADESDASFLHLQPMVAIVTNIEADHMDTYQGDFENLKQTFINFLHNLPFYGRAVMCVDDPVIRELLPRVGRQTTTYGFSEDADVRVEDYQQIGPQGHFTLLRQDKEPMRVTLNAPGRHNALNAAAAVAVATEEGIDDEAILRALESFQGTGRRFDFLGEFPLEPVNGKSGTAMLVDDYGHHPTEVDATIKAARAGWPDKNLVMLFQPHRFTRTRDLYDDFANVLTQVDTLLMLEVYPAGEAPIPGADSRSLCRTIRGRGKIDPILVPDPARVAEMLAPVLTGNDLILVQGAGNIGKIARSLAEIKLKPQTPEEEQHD
- method-summary: Inhibitory activity against MurC (E. coli)
- Format: biochemical
- condition-notes: (E) E. coli enzyme
metric: MurC IC50

Before answering, review these 3 worked examples.
compound: CCOC(=O)c1cccc(C2=C(O)C(=Cc3cccc4ccccc34)OC2=O)c1 [Example 75]
metric: MurC IC50
result: 18 µg/mL

compound: O=C1O/C(=C\c2ccc3ccccc3c2)C(O)=C1c1cccc(C(F)(F)F)c1 [Example 8]
metric: MurC IC50
result: 6 (E) μg/mL

compound: O=C1O/C(=C\c2cccc(C(F)(F)F)c2Cl)C(O)=C1c1ccc(-c2ccccc2)c(F)c1 [Example 114]
metric: MurC IC50
result: 10 (E) μg/mL

Next item in the queue.
Form: compound = O=C1O/C(=C\c2ccc(-c3ccccc3)cc2)C(O)=C1c1cccc2ccccc12 [Example 50] ; MurC IC50 = 9 (E) μg/mL

====

- System: Trichostrongylus columbriformis
- method-summary: In vivo efficacy against T. colubriformis in infected gerbils
- condition-notes: gerbils infected with T. colubriformis; single oral dose of 50 mg/kg by gavage; worm counts four days post-treatment; % mortality as compared to negative control
Entries and their Mortality
Report the figure along with its unit, number first.

Before answering, review these 3 worked examples.
compound: O=C1OC(=Cc2ccc(F)cc2)C(O)=C1c1ccc(OC(F)(F)F)cc1 (mixture of isomers)
Mortality: 0.00%

compound: O=C1OC(=Cc2ccc(-c3ccc(Cl)cc3)cc2)C(O)=C1c1cccc(C(F)(F)F)c1 (mixture of isomers)
Mortality: 31.30%

compound: N#Cc1ccc(C=C2OC(=O)C(c3ccc(-c4ccc(C#N)cc4)cc3)=C2O)cc1 (mixture of isomers)
Mortality: 29.80%

Form: compound = O=C1OC(=Cc2ccc(Oc3ccccc3)cc2)C(O)=C1c1ccc(OC(F)(F)F)cc1 (mixture of isomers) ; Mortality = 0.00%

====

- target-of-assay: S. aureus Uridine-diphosphate-N-acetylmuramoyl-L-alanine: D-glutamate liease, MurD (Staphylococcus aureus)
- Sequence (Q2FZ92 whole entry): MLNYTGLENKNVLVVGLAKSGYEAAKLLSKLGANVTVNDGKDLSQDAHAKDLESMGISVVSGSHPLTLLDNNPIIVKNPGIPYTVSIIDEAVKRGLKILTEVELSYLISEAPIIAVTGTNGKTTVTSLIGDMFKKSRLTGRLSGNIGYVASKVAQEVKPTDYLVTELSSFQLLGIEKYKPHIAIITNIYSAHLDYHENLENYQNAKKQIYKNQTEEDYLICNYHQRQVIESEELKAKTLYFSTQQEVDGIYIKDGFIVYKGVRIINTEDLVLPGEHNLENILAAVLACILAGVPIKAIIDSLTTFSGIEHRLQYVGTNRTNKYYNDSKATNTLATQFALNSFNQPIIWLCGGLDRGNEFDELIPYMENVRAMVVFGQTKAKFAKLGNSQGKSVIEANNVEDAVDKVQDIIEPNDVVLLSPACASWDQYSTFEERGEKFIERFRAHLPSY
- method-summary: biochemical
- condition-notes: (S) S. aureus enzyme
Entries and their MurD IC50

Before answering, review these 5 worked examples.
compound: CN(C)c1ccc(C=C2OC(=O)C(c3cc(Cl)cc(Cl)c3)=C2O)c2ccccc12
MurD IC50: 13 (S) μg/mL
//
compound: O=C1OC(=Cc2ccc(-c3ccccc3)cc2)C(O)=C1c1cccc(C(F)(F)F)c1 (mixture of isomers)
MurD IC50: 11 µg/mL
//
compound: Cc1ccc(C=C2OC(=O)C(c3ccc(Cl)cc3)=C2O)s1 [Example 14]
MurD IC50: >25 (E); >25 (S) μg/mL
//
compound: O=C1OC(=Cc2cccc3ccccc23)C(O)=C1c1ccc(C=NO)cc1 (mixture of isomers)
MurD IC50: >25 (E); >25 (S) μg/mL
//
compound: N#Cc1ccc(C2=C(O)/C(=C/c3ccc(-c4ccc(C#N)cc4)cc3)OC2=O)cc1
MurD IC50: > 25 µg/mL

Next item in the queue.
Form: compound = COc1ccc(C=C2OC(=O)C(c3cccc(Cl)c3)=C2O)c2ccccc12 ; MurD IC50 = 17 (S) μg/mL

====

Entries and their IC50
- target-of-assay: UniProt:P17952
- method-summary: Inhibitory activity against MurC (E. coli)
- Type: biochemical
- condition-notes: (E) E. coli enzyme; read-out: MurC IC50 (converted)
Report the figure along with its unit, number first.

molecule: O=C1O/C(=C\c2cccc3ccccc23)C(O)=C1c1ccc2ccccc2c1
result: 16.5 µM
--
molecule: CCCc1ccc(-c2ccc(C3=C(O)/C(=C/c4cccc(C(F)(F)F)c4)OC3=O)cc2)cc1
result: 40 µM
--
molecule: COc1ccccc1-c1ccc(/C=C2\OC(=O)C(c3ccc(Cl)c(Cl)c3)=C2O)cc1OC
result: 23.4 µM

Next item in the queue.
Form: molecule = O=C1O/C(=C\c2ccc(-c3ccccc3)cc2)C(O)=C1c1cc(Cl)cc(Cl)c1 [Example 68] ; IC50 = 22 µM

====

- target-of-assay: E. coli UDP-N-acetylglucosamine enolpyruvoyl transferase, MurA (Escherichia coli)
- Sequence (P0A749 whole entry): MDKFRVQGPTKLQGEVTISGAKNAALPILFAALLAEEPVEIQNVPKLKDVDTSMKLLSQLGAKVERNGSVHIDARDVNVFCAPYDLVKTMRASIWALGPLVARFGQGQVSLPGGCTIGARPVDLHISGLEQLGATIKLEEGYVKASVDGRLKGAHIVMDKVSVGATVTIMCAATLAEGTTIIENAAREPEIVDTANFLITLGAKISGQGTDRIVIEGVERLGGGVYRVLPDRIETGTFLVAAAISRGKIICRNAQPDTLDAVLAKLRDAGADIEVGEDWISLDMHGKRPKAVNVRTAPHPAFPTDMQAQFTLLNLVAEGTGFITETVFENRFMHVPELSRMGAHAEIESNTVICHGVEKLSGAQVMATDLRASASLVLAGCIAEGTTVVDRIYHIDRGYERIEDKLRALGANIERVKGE
Entries and their IC50
Your answer should be a plain number; it is taken to be in µM.

smiles-repr: CCOc1ccc(-c2ccc(C3=C(O)/C(=C/c4cc(C(F)(F)F)ccc4Cl)OC3=O)cc2)cc1
unit-symbol: µM
IC50: 4.11
//
smiles-repr: O=C1O/C(=C\c2ccc(-c3ccc(Cl)cc3)cc2)C(O)=C1c1ccc(Cl)cc1
unit-symbol: µM
IC50: 14.7
//
smiles-repr: O=C1O/C(=C\c2cccc3ccccc23)C(O)=C1c1ccc2ccccc2c1
unit-symbol: µM
IC50: 49.4
//
smiles-repr: CC(C)(C)c1ccc(-c2ccc(C3=C(O)/C(=C/c4cccc(C(F)(F)F)c4)OC3=O)cc2)cc1
unit-symbol: µM
IC50: 6.46
//
smiles-repr: O=C1O/C(=C\c2cc(C(F)(F)F)ccc2F)C(O)=C1c1ccc(-c2ccccc2)cc1
unit-symbol: µM
IC50: 35.2
//
smiles-repr: CCCc1ccc(-c2ccc(C3=C(O)/C(=C/c4cccc(C(F)(F)F)c4)OC3=O)cc2)cc1
unit-symbol: µM
IC50: 8.88
//
smiles-repr: O=C1O/C(=C\c2ccc(-c3ccccc3)cc2)C(O)=C1c1cccc(C(F)(F)F)c1
unit-symbol: µM
IC50: 2.45
//
smiles-repr: CCOc1ccc(-c2ccc(C3=C(O)/C(=C/c4ccc(Cl)c(C(F)(F)F)c4)OC3=O)cc2)cc1
unit-symbol: µM
IC50: 28.8

Field IC50 (E. coli UDP-N-acetylglucosamine enolpyruvoyl transferase, MurA (Escherichia coli)), entry O=C1O/C(=C\c2ccccc2C(F)(F)F)C(O)=C1c1ccc(-c2ccccc2)cc1 : 9.79

Field IC50 (E. coli UDP-N-acetylglucosamine enolpyruvoyl transferase, MurA (Escherichia coli)), entry N#Cc1cccc(-c2ccc(/C=C3\OC(=O)C(c4ccccc4C#N)=C3O)cc2)c1 : 43.5
